Experiment: SAD study: single-dose nacubactam pharmacokinetics (plasma/urine, LC-MS/MS, noncompartmental)
Type: in vivo
Conditions: human, plasma, iv, 2000 mg, single i.v. dose 2,000 mg, n = 6, mean (SD)

compound	AUC(0-t) / µg·h/mL
NCCONC(=O)[C@@H]1CC[C@@H]2CN1C(=O)N2OS(=O)(=O)O [Nacubactam]	229

* * *

Experiment: SAD study: single-dose nacubactam pharmacokinetics (plasma/urine, LC-MS/MS, noncompartmental)
Type: in vivo
Details: human, plasma, iv, 2000 mg, single i.v. dose 2,000 mg, n = 6, mean (SD)
Method: Study treatments were administered as 30-min (SAD study) or 90-min (MAD study) i.v. infusions, the latter to investigate the pharmacokinetics using a longer infusion time, which is commonly used to increase the time above the MIC of β-lactams ([15]). The choice of a 90-min infusion time for the MAD study was dictated by the stability and toxicology data available at the time the study was being designed. […]
propertyName: Tmax (min)

mol	propertyName	endpointResult
NCCONC(=O)[C@@H]1CC[C@@H]2CN1C(=O)N2OS(=O)(=O)O	Tmax	30
